target: G3BP1NTF-2-GFP (Homo sapiens)
Sequence (Q13283 1-139): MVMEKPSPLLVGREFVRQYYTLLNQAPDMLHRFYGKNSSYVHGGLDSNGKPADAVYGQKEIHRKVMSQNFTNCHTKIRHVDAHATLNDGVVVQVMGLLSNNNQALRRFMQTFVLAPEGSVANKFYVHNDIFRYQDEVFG
# pIC50 annotations
The quantity pIC50 is defined as the negative base-10 logarithm of the molar concentration.

query: Which pIC50 value is on record for "O=C1NCN(c2ccccc2)C12CCN(CCCC(c1ccc(F)cc1)c1ccc(F)cc1)CC2" ?
result: 4.98

query: # iterate: CN1C[C@H](C(=O)N[C@]2(C)O[C@@]3(O)[C@@H]4CCCN4C(=O)[C@H](Cc4ccccc4)N3C2=O)C[C@@H]2c3cccc4[nH]cc(c34)C[C@H]21 [Dihydroergotamine]
result: 4.88

query: "CC[C@H](NC(=O)c1c(C)c(-c2ccccc2)nc2ccccc12)c1ccccc1" , same question.
result: 4.89

query: Also CNC(=O)c1c(F)cccc1Nc1nc(Nc2cc3c(cc2OC)CCN3C(=O)CN(C)C)nc2[nH]ccc12 [GSK1838705A] , if possible.
result: 4.84

query: What do you have for "COc1ccc(Br)cc1S(=O)(=O)NC(=O)/C=C/c1ccccc1Cc1ccc2ccccc2c1" ?
result: 4.94
